Where do the numbers come from? From paper PMC10247784.

# targetOrSystem: mouse Tas2r108 (Mus musculus, UniProt Q9JKT3)
# Construct: expressed in transfected cells; host or cells: HEK293T-Gα16gust44
# Sequence (Q9JKT3 whole entry): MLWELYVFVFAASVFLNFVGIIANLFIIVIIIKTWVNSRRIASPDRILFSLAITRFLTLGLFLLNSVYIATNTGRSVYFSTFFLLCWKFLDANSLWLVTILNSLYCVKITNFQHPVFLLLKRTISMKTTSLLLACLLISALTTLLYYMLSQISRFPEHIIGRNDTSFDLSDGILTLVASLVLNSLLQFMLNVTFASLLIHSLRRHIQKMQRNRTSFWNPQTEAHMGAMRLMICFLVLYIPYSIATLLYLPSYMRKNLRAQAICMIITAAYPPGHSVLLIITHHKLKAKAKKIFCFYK
# assay: Calcium imaging assay (FLIPR), HEK293T-Gα16gust44 cells transfected with mouse Tas2r108
# Assay type: cell-based
# experimentalSetup: Time 299.562 s
metricName: RLU (RLU)
Write the value in RLU as a bare number.

Q) Please give the documented RLU of C[C@H](CCC(=O)O)[C@H]1CC[C@H]2[C@@H]3CC[C@@H]4C[C@H](O)CC[C@]4(C)[C@H]3C[C@H](O)[C@]12C
A) 441.037

Q) Give reported RLU value for C[C@H](CCC(=O)NCCS(=O)(=O)O)[C@H]1CC[C@H]2[C@@H]3[C@H](O)C[C@@H]4C[C@H](O)CC[C@]4(C)[C@H]3C[C@H](O)[C@]12C
A) 234.317

Q) Check the records and state RLU for C[C@H](CCC(=O)NCC(=O)O)[C@H]1CC[C@H]2[C@@H]3[C@H](O)C[C@@H]4C[C@H](O)CC[C@]4(C)[C@H]3C[C@H](O)[C@]12C
A) 165.311

Q) Check the records and state RLU for C[C@H](CCC(=O)O)[C@H]1CC[C@H]2[C@@H]3[C@H](O)C[C@@H]4C[C@H](O)CC[C@]4(C)[C@H]3C[C@H](O)[C@]12C
A) 159.088
